test: Fluorescence properties of the new compounds (excitation and emission wavelengths); assay type: physicochemical; conditions: free compound
endpoint_name: Fluorescence emission (nm)

{"compound": "CC(O)C(COP(=O)(O)OC(C)C(COP(=O)(O)OC(C)C(CO)NC(=O)c1c2ccccc2nc2ccccc12)NC(=O)c1c2ccccc2nc2c1[nH]c1ccccc12)NC(=O)Cn1c2nc3ccccc3c-2cc2ccccc21 (centres unmarked)", "units_text": "nm", "Fluorescence emission (nm)": 449}
{"compound": "CC(=O)N[C@H]1C[C@@H](C(=O)N[C@H]2C[C@@H](C(=O)N[C@H]3C[C@@H](C(N)=O)N(C(=O)CNC(=O)c4c5ccccc5nc5ccccc45)C3)N(C(=O)CNC(=O)c3c4ccccc4nc4ccccc34)C2)N(C(=O)CNC(=O)c2c3ccccc3nc3c2[nH]c2ccccc23)C1", "units_text": "nm", "Fluorescence emission (nm)": 456}
